All values here come from patent US20210179680A1.

system: mice with bleomycin-induced pulmonary fibrosis; experiment: Hydroxyproline content in lung of mice with pulmonary fibrosis; format: in vivo, C57BL/6 mice; settings: Table 3 groups, 2 mg/kg i.p.; left lung lobes; chloramine-T method
Bridge positions count the residues as written; N and C are the ends. Square brackets hold non-standard residues; d marks the D form. Peptide text beside a SMILES is read from it. S5 = C=CCCC[C@](C)(N)C(=O)O
Property Label: hydroxyproline content (μg/mg protein)
Give bare numbers, in μg/mg protein.

Take a look at these entries with their results.
Molecule	U	Result Value
CSCC[C@H](NC(=O)[C@H](CC(C)C)NC(=O)[C@@H](N)Cc1c[nH]cn1)C(=O)N[C@@H](C)C(=O)N[C@@H](CS)C(=O)N[C@@H](Cc1ccccc1)C(=O)N[C@H](C(=O)N[C@@H](CS)C(=O)N[C@@H](C)C(=O)N[C@@H](CCCCN)C(=O)N[C@@]1(C)CCCC=CCCC[C@@](C)(C(=O)O)NC(=O)[C@H](CCCCN)NC(=O)[C@H](CCCCN)NC(=O)[C@H](CC(C)C)NC1=O)[C@@H](C)O [S11] (H-HLMACFTCAK[S5]LKK[S5]-OH; staple 11-15; N-terminus and C-terminus assumed)	μg/mg protein	0.7725
CSCC[C@@H]1NC(=O)[C@H](CC(C)C)NC(=O)[C@@](C)(N)CCCC=CCCC[C@@](C)(C(=O)N[C@@H](Cc2ccccc2)C(=O)N[C@H](C(=O)N[C@@H](CS)C(=O)N[C@@H](C)C(=O)N[C@@H](CCCCN)C(=O)N[C@@H](CCCCN)C(=O)N[C@@H](CC(C)C)C(=O)N[C@@H](CCCCN)C(=O)N[C@@H](CCCCN)C(=O)N[C@@H](CCCNC(=N)N)C(=O)O)[C@@H](C)O)NC(=O)[C@H](C)NC1=O [S1] (H-[S5]LMA[S5]FTCAKKLKKR-OH; staple 1-5; N-terminus and C-terminus assumed)	μg/mg protein	0.7087
CSCC[C@H](NC(=O)[C@H](CC(C)C)NC(=O)[C@@H](N)Cc1c[nH]cn1)C(=O)N[C@@]1(C)CCCC=CCCC[C@@](C)(C(=O)N[C@@H](C)C(=O)N[C@@H](CCCCN)C(=O)N[C@@H](CCCCN)C(=O)N[C@@H](CC(C)C)C(=O)N[C@@H](CCCCN)C(=O)N[C@@H](CCCCN)C(=O)N[C@@H](CCCNC(=N)N)C(=O)O)NC(=O)[C@H]([C@@H](C)O)NC(=O)[C@H](Cc2ccccc2)NC(=O)[C@H](CS)NC1=O [S4] (H-HLM[S5]CFT[S5]AKKLKKR-OH; staple 4-8; N-terminus and C-terminus assumed)	μg/mg protein	0.65

Moving on to the next molecule.
Prompt: Look up hydroxyproline content (μg/mg protein) with mice with bleomycin-induced pulmonary fibrosis for this molecule: CC(C)C[C@H](NC(=O)[C@H](CCCCN)NC(=O)[C@H](CCCCN)NC(=O)[C@H](C)NC(=O)[C@H](CS)NC(=O)[C@]1(C)CCCC=CCCC[C@](C)(NC(=O)[C@H](CC(C)C)NC(=O)[C@@H](N)Cc2c[nH]cn2)C(=O)N[C@@H](C)C(=O)N[C@@H](CS)C(=O)N[C@@H](Cc2ccccc2)C(=O)N1)C(=O)N[C@@H](CCCCN)C(=O)N[C@@H](CCCCN)C(=O)N[C@@H](CCCNC(=N)N)C(=O)O [S3] (H-HL[S5]ACF[S5]CAKKLKKR-OH; staple 3-7; N-terminus and C-terminus assumed)
Response: 0.8287
